For reference, the following Ki results for Sodium-dependent serotonin transporter (Homo sapiens, UniProt P31645) were taken from various sources.
Output spec: scalar in µM, unitless text.

COc1ccc(OC(CCN(C)C)c2ccc(OCCCN3CCCCC3)cc2)cc1 (centres unmarked) = 0.06
N#Cc1ccc(-c2ccc(F)cc2CO[C@H]2CCNC2)cc1 = 1.32
CN(C)CCC(Oc1ccc(C(F)(F)F)cc1)c1ccc(CCCCN2CCCCC2)cc1 (centres unmarked) = 0.005
COc1ccc(C2CN(C)Cc3cc(OCC4CN(C(C)C)CCO4)ccc32)cc1 (centres unmarked) = 0.007
Cc1ccc(OC[C@H]2CCCNC2)c(Oc2ccc(F)cc2)n1 = 0.21
COc1ccc(C2CN(CCO)Cc3cc(OCCCN4CCCCC4)ccc32)cc1 (centres unmarked) = 0.031

Ask | Bench note: what Ki did CCOc1ccc(C2CN(C)Cc3cc(OCCCN4CCC(F)CC4)ccc32)cc1 (centres unmarked) show?
Reply | 0.005

Ask | Bench note: what Ki did `FC(F)(F)c1ccc(COc2ccc(Cl)cc2OC2CNC2)c(C(F)(F)F)c1` show?
Reply | 0.197

Ask | Bench note: what Ki did `C[C@H]1CNCCN1c1nc(-c2ccc(F)cc2F)c2ccccc2n1` show?
Reply | 0.0641

Ask | Bench note: what Ki did `Cc1cccc(Oc2ncccc2OC[C@H]2CCCNC2)c1.O=C(O)/C=C/C(=O)O` show?
Reply | 5.8

Ask | Bench note: what Ki did CN(C)CCC(Cc1ccccc1)c1ccc(OCCCN2CCCCC2)cc1 (centres unmarked) show?
Reply | 0.014

Ask | Bench note: what Ki did `COc1cccc(F)c1Oc1cc(Cl)ccc1OC[C@H]1CCCNC1` show?
Reply | 0.014

Ask | Bench note: what Ki did `Clc1cccc(COc2cc(Br)ccc2OC2CNC2)c1` show?
Reply | 0.028

Ask | Bench note: what Ki did Nc1ccc([C@H]2CN3CCC[C@H]3c3cc(OCCCN4CCCCC4)ccc32)cc1 (relative stereo) show?
Reply | 0.008
